SYSTEM_TESTED: T1, mesothelin (MSLN) (UniProt Q13421 296-580)
T1 construct: also called immobilized MSLN
EXPERIMENTAL_PROTOCOL: ELISA, MSLN coated on plate, IgG1-vcMMAE detected with anti-human IgG HRP
READOUT: EC50 (µg/mL)
Give the quantity in µg/mL, number only.

BINDER	READOUT_UNIT	EC50
CHS8-vcMMAE (antibody, V domains shown, also called CHS8 IgG1-vcMMAE) VH: EVQLVESGGGLVQPGGSLRLSCAASGFTISKASIHWVRQAPGKGLEWVASIWPTKGFTTYADSVKGRFTISADTSKNTAYLQMNSLRAEDTAVYYCARGRYWLDYWGQGTLVTVSS VL: DIQMTQSPSSLSASVGDRVTITCRASQDVKEGVAWYQQKPGKAPKLLIDERERLYSGVPSRFSGSGSGTDFTLTISSLQPEDFATYYCQQYNTWPATFGQGTKVEIKR	µg/mL	0.00926
ALA12-vcMMAE (antibody, V domains shown, also called ALA12 IgG1-vcMMAE) VH: EVQLVESGGGLVQPGGSLRLSCAASGFTIGNWTIHWVRQAPGKGLEWVALIWPESGATLYADSVKGRFTISADTSKNTAYLQMNSLRAEDTAVYYCARGRYWMDYWGQGTLVTVSS VL: DIQMTQSPSSLSASVGDRVTITCRASQDVRDGVAWYQQKPGKAPKLLIDQMVRLYSGVPSRFSGSGSGTDFTLTISSLQPEDFATYYCQQYFNWPVTFGQGTKVEIKR	µg/mL	0.0105

Kindly review the next binder as well.
Annotate the binder CHS7-vcMMAE (antibody, V domains shown, also called CHS7 IgG1-vcMMAE) VH: EVQLVESGGGLVQPGGSLRLSCAASGFTIDKEAIHWVRQAPGKGLEWVASIYPHSGFTLYADSVKGRFTISADTSKNTAYLQMNSLRAEDTAVYYCARGRYWMDYWGQGTLVTVSS VL: DIQMTQSPSSLSASVGDRVTITCRASQDVEDGVAWYQQKPGKAPKLLIGIKDLLYSGVPSRFSGSGSGTDFTLTISSLQPEDFATYYCQQYYRWPSTFGQGTKVEIKR with its measured EC50. 0.0163
